target: NRAS G12C (Homo sapiens, UniProt P01111+P62937, G12C); test: Disruption of BRAF RBD interaction with Ras (FRET / MOA assay, with Cyclophilin A); format: biochemical; conditions: NRAS G12C; read-out: NRAS G12C FRET data IC50
Sequence (P01111 whole entry G12C): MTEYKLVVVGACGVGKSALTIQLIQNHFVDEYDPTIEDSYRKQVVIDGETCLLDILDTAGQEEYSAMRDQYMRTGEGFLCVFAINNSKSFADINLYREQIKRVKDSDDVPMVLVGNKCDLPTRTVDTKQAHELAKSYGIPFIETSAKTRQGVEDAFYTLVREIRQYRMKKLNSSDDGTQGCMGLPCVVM
Sequence (P62937 whole entry): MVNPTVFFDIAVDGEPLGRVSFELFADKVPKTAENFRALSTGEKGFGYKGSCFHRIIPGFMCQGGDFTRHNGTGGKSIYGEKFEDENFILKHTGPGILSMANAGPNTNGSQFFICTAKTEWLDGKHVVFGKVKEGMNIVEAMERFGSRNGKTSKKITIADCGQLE
// IC50 lookup, one value per entry

>>> observed("CCn1c(-c2cccnc2[C@H](C)OC)c2c3cc(ccc31)-c1cc(O)cc(c1)C[C@H](NC(=O)[C@H](C(C)C)N(C)C(=O)[C@H]1CCN(C(=O)OC3COC3)C1)C(=O)N1CCC[C@H](N1)C(=O)OCC(C)(C)C2")
"0.01 to 0.1 µM"
>>> observed("CCn1c(-c2cccnc2[C@H](C)OC)c2c3cc(ccc31)-c1cccc(c1)C[C@H](NC(=O)[C@H](C(C)C)N(C)C(=O)N1CCC13CN(C(=O)C#CC(C)(C)N(C)C)C3)C(=O)N1CCC[C@H](N1)C(=O)OCC(C)(C)C2 (atropisomer, axis not shown)")
"0.1 to 1 µM"
>>> observed("CCn1c(-c2cccnc2[C@H](C)OC)c2c3cc(ccc31)-c1csc(n1)C[C@H](NC(=O)[C@H](C(C)C)N(C)C(=O)N1CCC13CN(C)C3)C(=O)N1CCC[C@H](N1)C(=O)OCC(C)(C)C2")
"0.01 to 0.1 µM"

Please turn your attention to the following entry.
Enquiry: Looking for the measured IC50 of CCn1c(-c2cnccc2COC)c2c3cc(ccc31)-c1cc(O)cc(c1)C[C@H](NC(=O)[C@H](C(C)C)N(C)C(=O)C1C[C@@H]1C)C(=O)N1CCC[C@H](N1)C(=O)OCC(C)(C)C2 (stereo partly shown) , can you help?
Return: 0.1 to 1 µM
